Molecular target: human JAK2 (Homo sapiens (Human))
Sequence (O60674 815-1132): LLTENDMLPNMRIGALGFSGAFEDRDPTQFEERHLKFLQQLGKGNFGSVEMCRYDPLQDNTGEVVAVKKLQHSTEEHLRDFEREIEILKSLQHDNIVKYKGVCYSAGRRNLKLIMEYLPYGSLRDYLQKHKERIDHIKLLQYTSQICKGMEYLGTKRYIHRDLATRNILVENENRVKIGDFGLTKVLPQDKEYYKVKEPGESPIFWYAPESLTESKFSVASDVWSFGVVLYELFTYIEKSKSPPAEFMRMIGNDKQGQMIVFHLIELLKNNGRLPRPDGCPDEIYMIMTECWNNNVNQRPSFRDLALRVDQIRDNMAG
Conditions: read-out: JAK2 IC50
Here, each record is paired with measured pIC50 data.
Reminder that pIC50 is minus the log10 of a molar concentration.

Below, 2 molecules whose answers are already recorded.
| molecule | test system | pIC50 |
| --- | --- | --- |
| COc1cc(N2CCN(C)CC2)ccc1Nc1nc2c(NCc3cccnc3N(C)S(C)(=O)=O)cccn2n1 [Example 137] | human JAK2 (Homo sapiens (Human)) | 5.52 |
| CS(=O)(=O)c1ccc(-c2cccn3nc(Nc4ccc(OCCN5CCOCC5)cc4)nc23)cc1 [Example 26] | human JAK2 (Homo sapiens (Human)) | 8.89 |

Now look at this entry.
Exercise: # pIC50 lookup, item COc1ccc(C(F)(F)F)cc1-c1cccn2nc(Nc3ccc4c(c3)CCN(C(=O)OC(C)(C)C)C4)nc12 [Example 336]
Key: 5.94

* * *

Molecular target: UniProt Q05397
Conditions: read-out: FAK IC50
property label: IC50 (µM)
Give the value in µM but do not write µM after it.

| test smiles | property label | output unit | measured result |
| --- | --- | --- | --- |
| CS(=O)(=O)c1ccc(-c2cccc3nc(Nc4cccc(S(C)(=O)=O)c4)nn23)cc1 | IC50 | µM | 3 |
| CS(=O)(=O)c1ccc(-c2cccn3nc(Nc4cccc(N5CCN(CCO)CC5)c4)nc23)cc1 | IC50 | µM | 0.999 |

Now look at this entry.
Exercise: Short answer please: IC50, UniProt Q05397, entry CS(=O)(=O)c1ccc(-c2cccn3nc(Nc4ccc(OCCN5CCOCC5)cc4)nc23)cc1
Key: 0.585

* * *

Here, each record is paired with measured IC50 data.
Biological target: UniProt Q05397
Conditions: read-out: FAK IC50
Give the value in nM but do not write nM after it.

Below, 2 compounds whose answers are already recorded.
| test smiles | measured result |
| --- | --- |
| CS(=O)(=O)c1ccc(-c2cccn3nc(Nc4cnn(C5CCNCC5)c4)nc23)cc1 | 3000 |
| COc1ccc(Nc2nc3c(Nc4ccccc4S(C)(=O)=O)cccn3n2)cc1 | 3000 |

Exercise: # IC50 lookup, item COc1cnc(-c2cccn3nc(Nc4ccc(C5CCN(CC(=O)N(C)C)CC5)cc4)nc23)cn1
Key: 3000

* * *

Target: human FAK (Homo sapiens (Human), UniProt Q05397)
Sequence (Q05397 whole entry): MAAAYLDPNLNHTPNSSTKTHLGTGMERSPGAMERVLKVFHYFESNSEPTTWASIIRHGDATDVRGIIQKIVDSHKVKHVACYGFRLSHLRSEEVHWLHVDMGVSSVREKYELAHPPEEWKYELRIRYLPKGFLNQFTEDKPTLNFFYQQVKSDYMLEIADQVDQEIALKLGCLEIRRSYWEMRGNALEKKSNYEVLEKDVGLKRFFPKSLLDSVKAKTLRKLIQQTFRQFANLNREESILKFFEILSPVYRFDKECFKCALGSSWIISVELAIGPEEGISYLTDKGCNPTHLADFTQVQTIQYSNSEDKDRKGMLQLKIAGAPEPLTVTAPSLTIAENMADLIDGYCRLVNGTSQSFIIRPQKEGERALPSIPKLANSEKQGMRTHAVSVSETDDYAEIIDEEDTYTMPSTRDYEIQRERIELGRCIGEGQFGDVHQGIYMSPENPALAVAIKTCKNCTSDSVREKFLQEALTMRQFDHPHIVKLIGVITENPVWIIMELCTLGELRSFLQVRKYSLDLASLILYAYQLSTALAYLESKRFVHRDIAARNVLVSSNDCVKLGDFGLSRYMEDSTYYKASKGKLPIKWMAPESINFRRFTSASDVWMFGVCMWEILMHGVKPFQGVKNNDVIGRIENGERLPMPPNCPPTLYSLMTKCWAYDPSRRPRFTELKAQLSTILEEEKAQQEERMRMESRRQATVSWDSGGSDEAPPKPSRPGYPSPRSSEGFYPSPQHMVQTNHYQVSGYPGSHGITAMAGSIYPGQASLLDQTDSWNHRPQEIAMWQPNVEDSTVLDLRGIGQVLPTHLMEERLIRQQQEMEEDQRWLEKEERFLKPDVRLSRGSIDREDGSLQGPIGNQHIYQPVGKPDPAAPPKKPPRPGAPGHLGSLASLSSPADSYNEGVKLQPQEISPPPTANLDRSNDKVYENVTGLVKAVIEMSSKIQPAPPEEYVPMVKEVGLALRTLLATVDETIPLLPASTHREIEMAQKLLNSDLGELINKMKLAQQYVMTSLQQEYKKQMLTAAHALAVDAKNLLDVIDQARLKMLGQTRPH
Settings: read-out: FAK IC50
property label: IC50 (µM)
Give the value in µM but do not write µM after it.

| test smiles | output unit | IC50 |
| --- | --- | --- |
| CS(=O)(=O)c1ccccc1Nc1nc2c(Nc3ccccc3S(C)(=O)=O)cccn2n1 | µM | 6.5 |
| CN1CCN(c2cncc(Nc3nc4cncc(-c5ccc(S(C)(=O)=O)cc5)n4n3)c2)CC1 | µM | 3.37 |
| COc1ccccc1CNc1cccn2nc(Nc3ccnc(C)c3)nc12 | µM | 2.58 |
| CN1CCC(c2ccc(Nc3nc4c(Nc5cccnc5N(C)S(C)(=O)=O)cccn4n3)cc2)CC1 | µM | 2.07 |

Now look at this entry.
Exercise: # IC50 lookup, item CN1CCN(c2cccc(Nc3nc4c(-c5cccc(CN(C)S(C)(=O)=O)c5)cccn4n3)c2)CC1
Key: 3

* * *

Here, each record is paired with measured log10 IC50 data.
Target: human FAK (Homo sapiens (Human))
Settings: read-out: FAK IC50
Units before log transform: µM; reported quantity: IC50; transform: log10.

Below, 10 molecules whose answers are already recorded.
| molecule | test system | property label | measured result |
| --- | --- | --- | --- |
| CN1CCN(c2ccc(Nc3nc4c(CCc5ccccc5N(C)S(C)(=O)=O)cccn4n3)cc2)CC1 [Example 194] | human FAK (Homo sapiens (Human)) | log10 IC50 | -1.38 |
| CS(=O)(=O)c1cccc(-c2cccn3nc(Nc4cccc(N5CCOCC5)c4)nc23)c1 [Example 29] | human FAK (Homo sapiens (Human)) | log10 IC50 | 0.13 |
| CN1CCN(c2cccc(Nc3nc4c(-c5ccc(N(C)S(C)(=O)=O)cc5)cccn4n3)c2)CC1 [Example 63] | human FAK (Homo sapiens (Human)) | log10 IC50 | 0.13 |
| COc1ccc(Nc2nc3c(Nc4ccc(S(C)(=O)=O)cc4)cccn3n2)cc1 [Example 38] | human FAK (Homo sapiens (Human)) | log10 IC50 | 1.00 |
| CN1Cc2ccc(Nc3nc4c(NCc5cccnc5N(C)S(C)(=O)=O)cccn4n3)cc2C1 [Example 166] | human FAK (Homo sapiens (Human)) | log10 IC50 | -1.32 |
| COCc1ccccc1-c1cccc2nc(Nc3ccc4c(c3)CCN(C(=O)OC(C)(C)C)CC4)nn12 [Example 226] | human FAK (Homo sapiens (Human)) | log10 IC50 | 1.00 |
| CN1CCN(c2cccc(Nc3nc4c(-c5cnn(-c6ccc(F)cc6)c5)cccn4n3)c2)CC1 [Example 288] | human FAK (Homo sapiens (Human)) | log10 IC50 | 0.48 |
| CS(=O)(=O)c1ccc(-c2cccn3nc(Nc4cccc(S(C)(=O)=O)c4)nc23)cc1 [Example 113] | human FAK (Homo sapiens (Human)) | log10 IC50 | -0.16 |
| CN1CCN(c2cccc(Nc3nc4cccc(-c5ccc(S(C)(=O)=O)cc5)n4n3)c2)CC1 [Example 92] | human FAK (Homo sapiens (Human)) | log10 IC50 | 0.10 |
| CN1CCN(c2ccc(Nc3nc4c(-c5ccc(S(C)(=O)=O)cc5)cccn4n3)cc2)CC1 [Example 32] | human FAK (Homo sapiens (Human)) | log10 IC50 | -0.39 |

Exercise: # log10 IC50 lookup, item CS(=O)(=O)CCN1CCC(c2cccc(Nc3nc4c(-c5ccc(S(C)(=O)=O)cc5)cccn4n3)c2)CC1 [Example 190]
Key: -0.24

Exercise: # log10 IC50 lookup, item O=c1[nH]cccc1-c1cccn2nc(Nc3ccc4ncccc4c3)nc12 [Example 276]
Key: 1.00

Exercise: # log10 IC50 lookup, item COc1ccc(C(F)(F)F)cc1-c1cccn2nc(Nc3ccc4c(c3)CCN(CC(=O)N(C)C)C4)nc12 [Example 338]
Key: 0.14

Exercise: # log10 IC50 lookup, item CN1CCN(c2cccc(Nc3nc4c(NCc5ccccc5CN(C)S(C)(=O)=O)cccn4n3)c2)CC1 [Example 157]
Key: -0.52

* * *

Molecular target: human FAK (Homo sapiens (Human), UniProt Q05397)
Conditions: read-out: FAK IC50
property label: pIC50
Reminder that pIC50 is minus the log10 of a molar concentration.

Below, 4 compounds whose answers are already recorded.
| test smiles | test system | property label | measured result |
| --- | --- | --- | --- |
| CN1CCN(c2cccc(Nc3nc4c(-c5cccc(S(C)(=O)=O)c5)cccn4n3)c2)CC1 | human FAK (Homo sapiens (Human), UniProt Q05397) | pIC50 | 5.90 |
| CN1CCC(c2ccc(Nc3nc4c(NCc5cccnc5N(C)S(C)(=O)=O)cccn4n3)cc2)CC1 | human FAK (Homo sapiens (Human), UniProt Q05397) | pIC50 | 7.11 |
| COc1ccc(C(F)(F)F)cc1-c1cccn2nc(Nc3cccc(C4CCNCC4)c3)nc12 | human FAK (Homo sapiens (Human), UniProt Q05397) | pIC50 | 6.32 |
| COc1ccccc1CNc1cccn2nc(Nc3ccc(N4CCN(C)CC4)cc3)nc12 | human FAK (Homo sapiens (Human), UniProt Q05397) | pIC50 | 6.26 |

Exercise: # pIC50 lookup, item CC(C)Oc1ccc(C(F)(F)F)cc1-c1cccn2nc(Nc3ccc4c(c3)CCN(CC(=O)N(C)C)CC4)nc12
Key: 5.26

Exercise: # pIC50 lookup, item CN1C(=O)Cc2cc(Nc3nc4c(NCc5cccnc5N(C)S(C)(=O)=O)cccn4n3)ccc21
Key: 6.98
